Below, each of the compounds is paired with its reported Modal MIC50 value.
test system: C. auris TDG 1912; assay: microbe, parasite or virus in culture; format: cell-based, Candida auris; conditions: C. auris TDG 1912; shown in µM
Where a SMILES comes first, the peptide text is derived from it.
Measured quantity: Modal MIC50

compound="CC[C@H](C)[C@H](NC(=O)[C@@H](N)Cc1c[nH]c2ccccc12)C(=O)N[C@@H](CCCCN)C(=O)N[C@@H](CO)C(=O)N[C@H](C(=O)N[C@@H](C)C(=O)N[C@@H](CCCCN)C(=O)N[C@@H](CCCCN)C(N)=O)[C@@H](C)O [Opis8a] (H-WIKSTAKK-NH2)" observed_result="> 133.2 µM"
compound="CC(C)C[C@H](NC(=O)[C@H](CCCCN)NC(=O)[C@H](CO)NC(=O)[C@H](CCCCN)NC(=O)[C@@H](N)Cc1c[nH]c2ccccc12)C(=O)N[C@@H](C)C(=O)N[C@@H](CCCCN)C(=O)N[C@@H](CCCCN)C(N)=O [PS-PB-8a] (H-WKSKLAKK-NH2)" observed_result="> 127.2 µM"
compound="CC[C@H](C)[C@H](NC(=O)[C@H](C)NC(=O)[C@H](CCCCN)NC(=O)[C@@H]1CCCN1C(=O)[C@@H](NC(=O)[C@H](CC(C)C)NC(=O)[C@H](CCCCN)NC(=O)[C@H](Cc1ccccc1)NC(=O)[C@H](CC(C)C)NC(=O)[C@@H](N)Cc1ccccc1)[C@@H](C)CC)C(=O)N[C@@H](CCCCN)C(=O)N[C@@H](CCCCN)C(=O)N[C@@H](CC(C)C)C(=O)N[C@H](C(=O)N[C@@H](CO)C(=O)N[C@@H](CCCCN)C(=O)N[C@@H](Cc1ccccc1)C(=O)N[C@@H](CCCCN)C(N)=O)[C@@H](C)CC [AamAP1-Lysa] (H-FLFKLIPKAIKKLISKFK-NH2)" observed_result="> 57.8 µM"
